Origin of values: the supplement of paper PMC6555819

Test system: RARb homodimer (NR concentration 270 nM)
Assay: PBM binding z-score (relative to random genomic background probes); higher = stronger binding; sequences stand for … in GC…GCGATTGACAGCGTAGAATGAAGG
Values of PBM binding z-score greater than or equal to 2 map to satisfied; values below map to not satisfied.

Q. Exam item: decide whether the reported PBM binding z-score for TCTTGTAGATCAACAGTAGGTTAAGAAAGATCGA is at least 2.
A. not satisfied

Q. Is PBM binding z-score for CCTTACGGGTCACGAGGTTATATCACGACGAGCG at or above 2?
A. satisfied

Q. Could you verify whether the entry TTACCCAGGTGAAGGTCGTTGATCCCTCTGTAGA shows PBM binding z-score of no less than 2?
A. not satisfied

Q. Reported PBM binding z-score reaches at least 2 for CGAACTAGGACAGAACAGGACAGTGAAGGATGAT ?
A. not satisfied

Q. Determine whether measured PBM binding z-score meets or exceeds 2 for CCTACTGGGCCAAAAAGGTTATTGATGCCGATAA
A. not satisfied

Q. I'd appreciate it if you could say whether GCTGCTAGGTCAGGTTGGTAAGCTAACGGGTACG has PBM binding z-score at least equal to 2.
A. satisfied

Q. Is PBM binding z-score for CGAACTAGGCCAAGGACAGTGAATCTCCGCACGC at or above 2?
A. not satisfied

Q. Hello, I need to know if CGTCCAAGGTCATAGGAGGTCAGTGATGACAGAT has measured PBM binding z-score not below 2. Thanks!
A. satisfied

Q. Textbook exercise: given the entry TCGAGTAGGTTACCAATGGGACATTCAGCTTTCT , state whether its PBM binding z-score is greater than or equal to 2.
A. not satisfied

Q. Is it the case that ACTATTAGTTGACTTAGGGCAATCGATACGACGC has PBM binding z-score reaching or exceeding 2?
A. not satisfied

Q. // inclusive: PBM binding z-score at least 2? input: TCATATAGGTAAATGCTAGGTGAAAATCCGATCT
A. not satisfied

Q. Hello, I need to know if TAAATGAGGTTATAAGATCAGGGAACGTTGCAAA has measured PBM binding z-score not below 2. Thanks!
A. not satisfied

Q. Evaluate GGAACGAGGGTATTCGAGTTGATAGCATGGCGAT : PBM binding z-score at minimum 2?
A. not satisfied

Q. Please check the record CCTCGGAGGACAACAGGAGGTTAGAGCTGCCAGA and state if its PBM binding z-score is at or above 2.
A. not satisfied

Q. Hello, I need to know if AGAACGAGGGCACGCTGTGTTGATAGCAGAGTAG has measured PBM binding z-score not below 2. Thanks!
A. not satisfied

Q. Quick check: does TCATATAGGTAATACAGTTGAAAGTCGGCATCTA have PBM binding z-score greater than or equal to 2?
A. not satisfied

Q. Would you say TTACCAAGGTGACAGGTCGTTGATGCACGCCTTG shows PBM binding z-score at minimum 2?
A. not satisfied

Q. hey, is PBM binding z-score for this one >= 2? TCGAGTAGGTTAGTCGGGGCATTCAGCCAACATA
A. not satisfied

Q. API: above_or_equal(metric=PBM binding z-score, cutoff=2) for item TCTTGTAGATCAATACAGGTTAAGAAAGTGCGCT
A. not satisfied

Q. Check if PBM binding z-score >= 2 (inclusive). Item: AGAACGAGGGCACGCCGAGTTGATAGCAGAGTAG
A. not satisfied

Q. Evaluate CCTATTAGTTGACCATAAGAGCAACCGAAGCTCG : PBM binding z-score at minimum 2?
A. not satisfied

Q. Please indicate if the recorded PBM binding z-score for TAGCCTAGGTCATGGGCCAGTATACCACGCGAAC meets or exceeds 2.
A. satisfied

Q. Please indicate if the recorded PBM binding z-score for AGAATGAGGTTATACGTAGAGCAGGGAAGAAAGT meets or exceeds 2.
A. not satisfied

Q. Please check the record GCTGCTAGGTCAACTGGTGGTCAGCTAAAGCTCG and state if its PBM binding z-score is at or above 2.
A. satisfied

Q. Could you tell me if the measured PBM binding z-score of ATCTCTAGGTAAGCAAGTTCAGTGAATGCCGAAC reaches 2 or more?
A. not satisfied

Q. Given CAAACTAGGTCAAGGGCAAAGTCGGTTTGTGCCA , state whether its PBM binding z-score is at least 2.
A. satisfied

Q. Does the sequence TATACAGGGTCAAAGGCGAGAGTACGAATGTCGA have recorded PBM binding z-score that is 2 or more?
A. satisfied

Q. Does ATACCAAGGTGATCGTGAGGTCTTTGATACTAAC have a reported PBM binding z-score of at least 2?
A. not satisfied

Q. Assess whether reported PBM binding z-score for ATCGAAAGGTCGACGAGGTGGGTATACACCGTTT sits at 2 or higher.
A. satisfied

Q. Decide: PBM binding z-score of CGAACGAGGGCATGAGTTGATAGCAAATGCCGAT >= 2?
A. not satisfied

Q. Is it the case that TTTTGTAGATCAAAGGTTAAGAAAGCCGAAGCCT has PBM binding z-score reaching or exceeding 2?
A. not satisfied

Q. Confirm if PBM binding z-score reported for the sequence ATCGTAAGGTCGAGGTGAGTATAGAGAAAGGGAA is 2 or above.
A. satisfied

Q. Could you verify whether the entry CCTACTGGGTCATCAGGTCATTGATATCAACGTT shows PBM binding z-score of no less than 2?
A. satisfied
